# Assay summary: Acute toxicity under LD50 mouse
# Measurement parameters: in vivo, ip
Structures can show the parent of a compound that is named as a salt.
Each entry below carries its reported LD50.
Kindly provide the numeric value in mg/kg only, without the unit symbol.

# annotated cases, reported LD50 shown
- Molecule: "CN(CCc1ccccc1)CCc1sc(=O)[nH]c1-c1ccc(Cl)cc1.O=C(O)/C=C\\C(=O)O [LR 628]"
  LD50, mg/kg: 400
- Molecule: "O=c1[nH]c(-c2ccc(F)cc2)c(CCN2CCC(O)(c3ccc(Cl)cc3)CC2)s1 [LR 613, hydrochloride]"
  LD50, mg/kg: 300

Prompt line: Reported LD50 for Cl.O=c1[nH]c(-c2ccc(F)cc2)c(CCN2CCOCC2)s1 [LR 618] : what is it?
Response line: 250

Prompt line: Which LD50 reading was recorded for the molecule Cl.O=c1[nH]c(-c2ccc(F)cc2)c(CCN2CCCCC2)s1 [LR 617] ?
Response line: 100

Prompt line: Query (molecule): O=c1[nH]c(-c2ccc(F)cc2)c(CCN2CCC3(CC2)OCCCCO3)s1 [LR 648, hydrochloride] ; field requested: LD50
Response line: 125

Prompt line: Need LD50, item CCN(CC)CCc1sc(=O)[nH]c1-c1ccc(F)cc1 [LR 602]
Response line: 125

Prompt line: Could you tell me which LD50 is on file for CN(CCc1ccccc1)CCc1sc(=O)[nH]c1-c1ccccc1.O=C(O)/C=C\C(=O)O [LR 630] ?
Response line: 750

Prompt line: Please look up its LD50: COc1ccc(-c2[nH]c(=O)sc2CCN(C)CCc2ccccc2)cc1 [LR 620]
Response line: 100

Prompt line: Request the reported LD50 associated with CN(CCc1ccccc1)CCc1sc(=O)[nH]c1-c1ccc(F)cc1.O=C(O)/C=C\C(=O)O [LR 616]
Response line: 225

Prompt line: I am curious: what LD50 value has been reported for O=c1[nH]c(-c2ccccc2)c(CCN2CCN(c3ccccc3)CC2)s1 [LR 637] ?
Response line: 1000

Prompt line: Field request: LD50 | item: CC(=O)n1c(-c2ccc(F)cc2)c(CCN2CCN(c3ccccc3)CC2)sc1=O [LR 653]
Response line: 420

----------
# Assay summary: Arrhythmias induced by electrical stimulation of the isolated rabbit atrium (anti-arrhythmic activity)
# Measurement parameters: TD / ED30, isolated rabbit atrium; read-out: I.T. (2), therapeutic index from the ratio TD/ED30
Reported metric: selectivity ratio
Keep the answer to the number alone.

Completed entries (count: 3):
- Compound: "COc1ccc(-c2[nH]c(=O)sc2CCN(C)CCc2ccccc2)cc1"
  Reported metric: "selectivity ratio"
  Observed result: 30
- Compound: "Cl.O=c1[nH]c(-c2ccc(F)cc2)c(CCN2CCCCC2)s1 [LR 617, hydrochloride]"
  Reported metric: "selectivity ratio"
  Observed result: 69
- Compound: "Cl.O=c1[nH]c(-c2ccc(F)cc2)c(CCN2CCOCC2)s1 [LR 618, hydrochloride]"
  Reported metric: "selectivity ratio"
  Observed result: 8.5

Prompt line: Given the entry `CCN(CC)CCc1sc(=O)[nH]c1-c1ccc(F)cc1` , report its measured selectivity ratio.
Response line: 30

----------
Collected ED50 values appear next to each entry.
# Assay summary: Fibrillation induced by CaCl2 of the rat anaesthetised with urethane (anti-arrhythmic activity)
# Format: in vivo
# Measurement parameters: rat anaesthetised with urethane, iv
// note: answer is a bare numeric in mg/kg

- Line notation: "Cl.O=c1[nH]c(-c2ccc(F)cc2)c(CCN2CCOCC2)s1"
  ED50 (mg/kg): 15
- Line notation: "Cl.O=c1[nH]c(-c2ccc(F)cc2)c(CCN2CCCCC2)s1"
  ED50 (mg/kg): 4
- Line notation: "COc1ccc(-c2[nH]c(=O)sc2CCN(C)CCc2ccccc2)cc1"
  ED50 (mg/kg): 2

Note: attention shifts to another entry.
Prompt line: Suppose we examine the compound `CCN(CC)CCc1sc(=O)[nH]c1-c1ccc(F)cc1` ; what ED50 value has been reported?
Response line: 3.5

These entries and their values trace back to patent US4061637A.
